Molecular target: NDM-1 (New Delhi metallo-β-lactamase-1) (Klebsiella pneumoniae, UniProt C7C422)
Sequence (C7C422 29-270, looked up, species assumed): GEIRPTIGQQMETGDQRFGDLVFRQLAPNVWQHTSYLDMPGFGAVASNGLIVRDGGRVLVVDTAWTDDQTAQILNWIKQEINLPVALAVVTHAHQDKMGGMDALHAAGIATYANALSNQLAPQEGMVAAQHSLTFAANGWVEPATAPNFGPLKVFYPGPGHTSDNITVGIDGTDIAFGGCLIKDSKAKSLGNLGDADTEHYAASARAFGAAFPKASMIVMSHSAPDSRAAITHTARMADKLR
Experiment: Enzyme inhibition assay, NDM-1
Type: biochemical
Settings: read-out: pIC50 NDM-1 (converted)
parameter-measured: IC50 (nM)

[
  {
    "query-smiles": "Cc1c(Oc2ccccc2)ccc2c(-c3ccc(C(=O)N(C)C)cc3)c(C(=O)O)[nH]c12",
    "IC50 (nM)": 7.41
  },
  {
    "query-smiles": "Cc1cccc2c(-c3cccc4[nH]ncc34)c(C(=O)O)[nH]c12",
    "IC50 (nM)": 63.1
  },
  {
    "query-smiles": "Cc1cccc2c(C3=CCCC3)c(C(=O)O)[nH]c12",
    "IC50 (nM)": 79.4
  }
]

P = Cc1cccc2c(-c3ccccc3Cl)c(C(=O)O)[nH]c12
Q = CC(C)c1cccc2c(-c3ccc(Cn4cnnn4)cc3)c(C(=O)O)[nH]c12
Q: // which entry has the larger IC50 value, P or Q ? API: response body contains the label of the selected item.
A: P

1 = CC(C)c1cccc2c(-c3ccc(N4CCOCC4)nc3)c(C(=O)O)[nH]c12
2 = CS(=O)(=O)c1ccc(NNC(=O)c2[nH]c3ccccc3c2-c2ccccc2)cc1
Q: Which one would you say has the larger IC50 value: 1 , or 2 ? // output: label of the selected item
A: 2
(2: 7940 nM, 1: 6.76 nM)

a = CC(C)c1cccc2c(-c3ccc(CN4CCOCC4)cc3)c(C(=O)O)[nH]c12
b = CC(=O)Nc1ccc(-c2c(C(=O)O)[nH]c3c(C)cccc23)cc1
c = Cc1cc(C)c2[nH]c(C(=O)O)c(-c3ccc(F)cc3)c2c1
d = CC(C)c1cccc2c(-c3ccc(S(=O)(=O)N4CCCC4)cc3)c(C(=O)O)[nH]c12
e = CC(C)c1cccc2c(-c3ccc(Cl)cc3)c(C(=O)O)[nH]c12
Q: Arrange the 5 entries by IC50 so the values rise. Your reply should list the labels following the order given in the request.
A: d, e, a, b, c

I = COc1cc(C)c2[nH]c(C(=O)O)c(-c3ccc(F)cc3)c2c1
II = CC(C)c1cccc2c(-c3ccc(C(N)=O)cc3)c(C(=O)O)[nH]c12
Q: Hi, I'm comparing I with II and wondering which one has the bigger number for IC50. Any idea? Lab log: write the label of the selected item as the result.
A: I

A = CC(C)c1cccc2c(-c3ccccc3Cl)c(C(=O)O)[nH]c12
B = Cc1ccc2c(-c3ccc(F)cc3)c(C(=O)O)[nH]c2c1C
C = Cc1cccc2c(Br)c(C(=O)O)[nH]c12
Q: Falling order of IC50, please. Return value: ordered labels per request.
A: C, A, B

P = Cc1cccc2c(-c3ccc(OC(F)(F)F)cc3)c(C(=O)O)[nH]c12
Q = Cc1cccc2c(C3CCN(C(=O)OC(C)(C)C)CC3)c(C(=O)O)[nH]c12
Q: Pick one: P or Q . Which has the bigger IC50 number? Reply with the label of the item you choose.
A: Q
(Q: 158 nM, P: 50.1 nM)

1 = Cc1cccc2c(-c3cccc(Br)c3)c(C(=O)O)[nH]c12
2 = O=C(O)c1[nH]c2c(F)cccc2c1-c1ccc(F)cc1
Q: Exercise: compare 1 and 2 ; which one has the greater IC50? Output the label that corresponds to your choice.
A: 2
(2: 1580 nM, 1: 20 nM)

I = CC(C)c1cccc2c(-c3ccc(Cn4cncn4)cc3)c(C(=O)O)[nH]c12
II = CNS(=O)(=O)c1ccc(-c2c(C(=O)O)[nH]c3c(C(C)C)cccc23)cc1
Q: Which numeric IC50 is bigger, that of I or that of II ? Let me know the label of the one you choose.
A: II
